Would you mind telling me the reported pKd of each entry?
- STUDY SYSTEM: T1, Human PD-L1 (human, UniProt Q9NZQ7 19-238, limits assumed)
- T1 construct: also called PD-L1 analyte (Biacore); hPD-L1
- T1 sequence (Q9NZQ7 19-238 limits assumed): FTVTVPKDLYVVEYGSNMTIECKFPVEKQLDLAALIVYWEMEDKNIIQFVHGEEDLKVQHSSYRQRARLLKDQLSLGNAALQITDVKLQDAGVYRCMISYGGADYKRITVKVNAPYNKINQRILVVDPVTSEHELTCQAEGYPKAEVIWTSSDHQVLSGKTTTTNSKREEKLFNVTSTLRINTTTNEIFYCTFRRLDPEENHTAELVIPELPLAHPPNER
- EXPERIMENT: SPR (Biacore 3000), antibody captured, PD-L1 as analyte, 1:1 fit
API: returns pKd as number; meaning -log10 of concentration in mol/L.

Q. Recorded pKd for m8C6 (antibody, V domains shown, Murine hybridoma IgG (printed 'mIgG'); also called 8C6-mIgG; 8C6 murine) VH: QVQLKQSGPGLVQPSQSLSITCTVSGFSLTSYGVHWVRQSPGKGLEWLGVIWSGGVTDYNAAFISRLSISKDNSKSQVFFKMNSLQANDTAIYYCARLGFYAMDYWGQGTSVTVSS VL: SIVMTQTPKFLLVSAGDRVTITCKASQSVSNDVGWYQQKPGQSPKLLIYYASNRYSGVPDRFTGSGYGTDFTFTISTVQAEDLAVYFCQQDYTSPYTFGGGTKLEIK , please?
A. 8.82

Q. Sample m5G9 (antibody, V domains shown, Murine hybridoma IgG (printed 'mIgG'); also called 5G9-mIgG; 5G9 murine) VH: EVKLVESGGGLVKPGGSLKLSCAASGFTFRSYGMSWVRQTPEKRLEWVASISSGGTTYYPDSVKGRFIISRDNARNILYLQMSSLRSEDTAMYYCAKGYDSGFAYWGQGTLVIVSA VL: DIVLTQSPPSLAVSLGQRATISCRASQSVSTSSSSYMHWYQQKPGQPPKLLIKYASNLESGVPARFSGSGSGTDFTLNIHPVEEEDTATYYCQHSWEIPYTFGGGTKLEIK — what was its pKd?
A. 8.32

Q. Can you share its pKd? I mean this binder: m15F1 (antibody, V domains shown, Murine hybridoma IgG (printed 'mIgG'); also called 15F1-mIgG; 15F1 murine) VH: EEKLVESGGGLVKPGGSLKLSCAASGFSFSSYGMSWVRQTPEKRLEWVASISSGGSIYYPDSVKGRFTISRDNARNILYLQMSSLRSEDTAMYYCARGYDAGFAFWGQGTLVTASA VL: DIVLTQSPASLAVSLGQRATISCRASQSVSTSSYSYVHWYQQKPGQPPKLLIKYASNLESGVPARFSGSGSGTDFTLNIHPVEEEDTATYYCQHSWEIPYTFGGGTKLEIK
A. 8.44

Q. // query pKd value for entry m4A8 (antibody, V domains shown, Murine hybridoma IgG (printed 'mIgG'); also called 4A8-mIgG; 4A8 murine) VH: QVQLKQSGPGLVQPSQSLSITCTVSGFSLTSYGVHWVRQSPGKGLEWLGVIWSGGITDYNAAFKSRLSISKDNSKSQVFFKMNSLQANDTAIYFCARLGFYAMDYWGQGTSVTVSS VL: QIVLTQSPAIMSASPGEKVTMTCSANSSVSYMHWYQQKSGTSPKRWIYDTSKLASGVPARFSGSGSGTSYSLTISSMGAEDAATYYCQQWSSNPWTFGGGTKLEIK
A. 8.63

Q. Reported pKd, binder m8H4 (antibody, V domains shown, Murine hybridoma IgG (printed 'mIgG'); also called 8H4-mIgG; 8H4 murine) VH: EVKLVESGGGLVKPGGSLKLSCAASGFTFRSYGMSWARQIPEKRLEWVASISSGGTTYYLGSVQGRFTISRDNARNILYLQMSSLRSEDTAMYYCARGYDAGFAYWGQGTLVSVSE VL: DIVLTQSPASLAVSLGQRATISCRASQSVSTSSYSYMHWYQQKPGQPPKLLIKYASNLESGVPARFSGSGSGTDFTLNIHPVEEEDTATYYCQNSWEIPYTFGGGTKLEIK : ____
A. 8.34

Q. Reported pKd for m13C5 (antibody, V domains shown, Murine hybridoma IgG (printed 'mIgG'); also called 13C5-mIgG; 13C5 murine) VH: EVKLVESGGGLVKPGGSLKLSCAASGFIFRSYGMSWVRQTPEKRLEWVASISSGGSTYYPDSVKGRFTISRDNARNILYLQMSSLRSEDTAMYDCARGYDSGFAYWGQGTLVTVSE VL: DIVLTQSPASLAVSLGQRATISCRASQSVSTSSSSFMHWYQQKPGQPPKLLIKYASNLESGVPARFSGSGSGTDFTLNIHPVEEEDTATYYCQHSWEIPYTFGGGTKLEIKR : what is it?
A. 8.87

Q. Can you look up the measured pKd of m7B4 (antibody, V domains shown, Murine hybridoma IgG (printed 'mIgG'); also called 7B4-mIgG; 7B4 murine) VH: EVKLFESGGGLVQPGGSLKLSCVASGFDFSTYWMHWVRQAPGQGLEWIGQINPDSTTINYAPSLKDRFIISRDNAKNTLFLQMSKVRSEDTALYYCAKPGDYGYDFDCWGQGTTLTVSS VL: DVLMTQTPLYLPVSLGDQASISCRSSQIIVHSNANTYLEWFLQKPGQSPKLLIYKVSNRFSGVPDRFSGSGSGTDFTLKISRVEAEDLGVYYCFQGSHVPYTFGGGTKLEIK for me?
A. 8.22
